TGI for assorted compounds
system: SNB-78 CNS; assay: NCI tumour cell line growth inhibition, 48 h

| COMPOUND | MEASURED ON | TGI |
| --- | --- | --- |
| CC1=C(C(=O)Nc2ccccc2C)C(c2ccco2)C(C(=O)Nc2ccccc2C)=C(C)N1C | SNB-78 CNS | > 100 µM |
| CC(=O)OC1COC(n2c(=S)n(-c3ccc(C)cc3)c(=O)c3ccccc32)C(OC(C)=O)C1OC(C)=O (stereo not drawn) | SNB-78 CNS | > 100 µM |

// moving on: another record for TGI
O=C(N/C(=C\c1cc(Cl)ccc1Cl)c1nc2[nH]c(=S)[nH]c(=O)c2[nH]1)c1ccccc1 has a reported TGI of > 100 µM

###

system: SF-539 CNS; assay: NCI tumour cell line growth inhibition, 48 h
log10 TGI for assorted compounds
Log scale reminder: TGI in µM, then log10 taken.

| COMPOUND | log10 TGI |
| --- | --- |
| C/C(=C\CO)CC/C=C(\C)CNc1c(F)c(F)c(F)c(F)c1F | 1.61 |
| O=C1C2=C(SCCS2)C(=O)c2ccccc21 | 0.49 |
| O=C(C1OC1c1ccc(Cl)cc1)C12CC3CC(CC(C3)C1)C2 (centres undefined) | 1.51 |
| CCOc1ccccc1-n1c(CN2CCN(C(=O)COc3ccc(CNCCCCCCN4C5CCCC4CC(OC(=O)Nc4cc(C)ccc4OC)C5)cc3)CC2)nc2ccccc2c1=O (centres undefined) | 0.50 |
| O=c1cc(-c2cccc(O)c2)[nH]c2cc3c(cc12)OCO3 | 0.64 |

// moving on: another record for log10 TGI
COc1cc2nc(C)nc(N[C@H](C)c3cc(N)cc(C(F)(F)F)c3)c2cc1O[C@H]1CCOC1 has a reported log10 TGI of 1.40

###

test system: NCI-H522 lung; experiment: NCI tumour cell line growth inhibition, 48 h
TGI for assorted compounds

| COMPOUND | TGI |
| --- | --- |
| O=C(O)CCC(NC(=O)c1ccc(OCc2nc3cc(C(F)(F)F)ccc3nc2-c2ccccc2)cc1)C(=O)O (centres undefined) | > 100 µM |
| O=c1c2cccnc2n2n1Cc1ccccc1C2 | > 100 µM |

// assay NCI-H522 lung, entry Nc1ncc(Br)c(NCC2(CO)CCC2)n1 , TGI value = > 100 µM

// assay NCI-H522 lung, entry NC(=O)C(=CNC(N)=S)C(N)=O , TGI value = > 100 µM

###

test system: UO-31 renal; assay: NCI tumour cell line growth inhibition, 48 h
TGI for assorted compounds

Solved cases (3 shown):
| COMPOUND | MEASURED ON | PROPERTY MEASURED | VALUE |
| --- | --- | --- | --- |
| C[C@@H](CS(C)(=O)=O)Nc1ncc2cc(Oc3ccc(F)cc3F)c(=O)n(C)c2n1 | UO-31 renal | TGI | > 25 µM |
| CC(C)=C1C(=O)C[C@]2(C)C[C@H]3O[C@]3(C)CC[C@@H]3O[C@@]3(C)CC[C@@H]12 | UO-31 renal | TGI | > 50 µM |
| C=CCC1(O)CC(n2cc(C)c(=O)[nH]c2=O)OC1CO[Si](C)(C)C(C)(C)C (centres undefined) | UO-31 renal | TGI | > 100 µM |

// moving on: another record for TGI
C[n+]1c2ccccc2c(NCC(=O)O)c2ccccc21 has a reported TGI of > 100 µM

###

test system: A549 NSCLC; assay: NCI tumour cell line growth inhibition, 48 h
TGI for assorted compounds

// assay A549 NSCLC, entry COc1cccc(-c2nc3ccccc3c(=O)[nH]2)c1 , TGI value = 49.4 µM

// assay A549 NSCLC, entry CS(=O)(=O)OCCCCOS(=O)(=O)CF , TGI value = > 100 µM

// assay A549 NSCLC, entry O=C1NC2(CCCCC2)C2CCCCC(O)C12 (stereo not drawn) , TGI value = > 100 µM

// assay A549 NSCLC, entry O=C(O)c1cc(C(=O)O)cc(N2C(=O)c3ccccc3C2=O)c1 , TGI value = > 100 µM

// assay A549 NSCLC, entry COC1(c2ccc(Cl)cc2)SC=C(C)n2c1noc2=O (stereo not drawn) , TGI value = > 100 µM

// assay A549 NSCLC, entry C[C@@H](CS(C)(=O)=O)Nc1ncc2cc(Oc3ccc(F)cc3F)c(=O)n(C)c2n1 , TGI value = > 25 µM

// assay A549 NSCLC, entry COc1c2c(cc3c1C(=O)c1c(O)cccc1C3=O)CC(O)CC2 (stereo not drawn) , TGI value = > 100 µM

###

TGI for assorted compounds
tested on: UACC-62 melanoma; experiment: NCI tumour cell line growth inhibition, 48 h

| COMPOUND | TGI |
| --- | --- |
| CC(=O)OC1COC(n2c(=S)n(-c3ccc(C)cc3)c(=O)c3ccccc32)C(OC(C)=O)C1OC(C)=O (stereo not drawn) | > 100 µM |

COc1ccc(-c2cc(=O)c3ccc(O)cc3o2)c(OC)c1OC has a reported TGI of > 100 µM

CC1=C(C(=O)Nc2ccccc2C)C(c2ccco2)C(C(=O)Nc2ccccc2C)=C(C)N1C has a reported TGI of > 100 µM

###

test system: HCT-116 colon; experiment: NCI tumour cell line growth inhibition, 48 h
PROPERTY MEASURED: GI50

| MOLECULE | VALUE |
| --- | --- |
| COc1ccc2c(c1)C(=O)/C(=C/c1ccc(OCC(=O)Nc3nccs3)cc1)O2 | 2.75 µM |

O=c1n(CC2CO2)c(=O)n(CC2CO2)n1CC1CO1 (stereo not drawn) has a reported GI50 of 18.9 µM

O=[N+]([O-])c1cnc(Sc2ccncn2)s1 has a reported GI50 of 1.84 µM

###

TGI for assorted molecules
system: HS 578T breast; assay: NCI tumour cell line growth inhibition, 48 h

Solved cases (2 shown):
| MOLECULE | TGI |
| --- | --- |
| CNC(=O)c1ccccc1Nc1nc(Nc2ccc(N3CCOCC3)cc2OC)ncc1Cl | > 26.4 µM |
| CCCCCCCC(=O)SCC/C=C/[C@@H]1CC(=O)NCc2cccc(n2)C2=N[C@@](C)(CS2)C(=O)N[C@@H](C(C)C)C(=O)N1 | > 33.3 µM |

// moving on: another record for TGI
C=C1C[C@@H]2CC[C@@]34CC5O[C@H]6C(O[C@H]7CC[C@H](CC(=O)O[C@@H]8[C@@H](C)[C@@H]9O[C@@H]%10C[C@]%11(C[C@@H]%12O[C@]%13(C[C@H](C)[C@@H]%14O[C@@H]%15CC(C(O)CO)O[C@@H]%15C[C@@H]%14O%13)C[C@H](C)[C@@H]%12O%11)O[C@@H]%10C[C@@H]9O[C@H]8CC8O[C@@H](CC[C@@H]1O2)C[C@@H](C)C8(O)CO)O[C@@H]7[C@@H]6O3)[C@H]5O4 (stereo partly drawn) has a reported TGI of > 0.815 µM

###

tested on: U251 CNS; assay: NCI tumour cell line growth inhibition, 48 h
TGI for assorted molecules

| MOLECULE | VALUE |
| --- | --- |
| COc1cc(C(=O)/C=C/c2sc(Cl)nc2Cl)cc(OC)c1OC | 3.69 µM |

COc1cc2c(c(OC)c1O)-c1ccc(SC)c(=O)cc1C(NC(C)=O)CC2 (stereo not given) has a reported TGI of > 5.55 µM

CCCCS(=O)(=O)CCC(N)P(=O)(O)O (stereo not given) has a reported TGI of > 100 µM

COc1c2ccoc2c(/C=C/C=O)c2oc(-c3ccccc3)cc(=O)c12 has a reported TGI of 12.9 µM

###

tested on: NCI-H522 lung; experiment: NCI tumour cell line growth inhibition, 48 h; in the data active = GI50 below about 0.43 µM; inactive = the rest
Outcome (select one): Y = active, N = inactive

Example results:
| COMPOUND | CATEGORY |
| --- | --- |
| CCOc1ccccc1-n1c(CN2CCN(C(=O)COc3ccc(CNCCCCCCN4C5CCCC4CC(OC(=O)Nc4cc(C)ccc4OC)C5)cc3)CC2)nc2ccccc2c1=O (configuration not stated) | N |
| O=C(CCl)N1c2ccccc2Oc2ccc3ccccc3c21 | N |
| Cc1cc2nc(C(Cl)Cl)nc(-c3ccc(Cl)cc3)n2n1 | N |
| CCOC(=O)Nc1nc2ccc(OCC)cc2s1 | N |
| CC1=C(C(=O)Nc2ccc(F)c(Cl)c2)C(c2ccc(Cl)cc2)NC(=O)N1 (configuration not stated) | N |

QUERY: Per the assay record, what outcome was assigned to COc1cc2c(c(OC)c1O)C(=O)C(OC)C(c1ccc(O)c(O)c1)O2 (configuration not stated) ?
RESULT: Y

QUERY: Per the assay record, what outcome was assigned to C[C@@H](CS(C)(=O)=O)Nc1ncc2cc(Oc3ccc(F)cc3F)c(=O)n(C)c2n1 ?
RESULT: N
